biological target: Cathepsin S (Homo sapiens, UniProt P25774); assay: Inhibitory constant against human cathepsin S using Z-Val-Val-Arg-AMC substrate; settings: read-out: Ki app
Sequence (P25774 whole entry): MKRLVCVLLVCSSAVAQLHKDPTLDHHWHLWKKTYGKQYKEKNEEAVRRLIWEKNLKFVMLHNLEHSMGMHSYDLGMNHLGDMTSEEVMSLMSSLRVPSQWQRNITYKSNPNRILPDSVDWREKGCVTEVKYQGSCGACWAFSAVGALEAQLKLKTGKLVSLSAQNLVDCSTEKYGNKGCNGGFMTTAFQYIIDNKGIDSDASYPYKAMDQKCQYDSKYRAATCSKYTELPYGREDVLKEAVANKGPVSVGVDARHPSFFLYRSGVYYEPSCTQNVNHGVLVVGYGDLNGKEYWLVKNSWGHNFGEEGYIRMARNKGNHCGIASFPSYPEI
ENDPOINT: Ki (µM)
Give just the numeric value; µM need not be written.

>>> reading("C[C@@H](O)[C@H](NC(=O)OCc1ccccc1)C(=O)NCC#N")
42

# ---- query compound ----
Task: Fill in the blank: the reported Ki of `N#CCNC(=O)C1(NC(=O)c2ccc(-c3csc(N4CCC(N5CCCCC5)CC4)n3)cc2)CCCCC1` is ____.
Output: 42

----------
target: Procathepsin L (Homo sapiens, UniProt P07711); test: Inhibitory constant against human cathepsin L using Z-Phe-Arg-AMC substrate; conditions: read-out: Ki app
Sequence (P07711 whole entry): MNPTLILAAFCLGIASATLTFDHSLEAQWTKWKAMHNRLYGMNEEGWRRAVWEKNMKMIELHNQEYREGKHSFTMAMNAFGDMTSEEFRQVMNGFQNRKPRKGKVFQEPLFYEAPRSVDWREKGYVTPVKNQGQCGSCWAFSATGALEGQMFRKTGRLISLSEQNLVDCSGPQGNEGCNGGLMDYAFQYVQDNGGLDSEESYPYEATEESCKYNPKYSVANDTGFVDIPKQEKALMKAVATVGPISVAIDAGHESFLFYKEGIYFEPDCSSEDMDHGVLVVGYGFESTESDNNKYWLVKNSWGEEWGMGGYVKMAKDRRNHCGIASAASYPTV
ENDPOINT: Ki

>>> reading("CC(C)C[C@@H](NC(=O)OCc1ccccc1)C(=O)NCC#N")
"> 150 µM"
>>> reading("CC(C)(C)[C@H](NC(=O)OCc1ccccc1)C(=O)NCC#N")
"> 150 µM"

# ---- query compound ----
Task: Fill in the blank: the reported Ki of `CN1CCN(Cc2nc(-c3ccc(C(=O)NC4(C(=O)NCC#N)CCCCC4)cc3)cs2)CC1` is ____.
Output: 19 µM
